# credit: PubChem BioAssay (NCI)

# reported TGI; entries follow
system: A549 NSCLC; assay: NCI tumour cell line growth inhibition, 48 h

CC(=O)Nc1ccc(NS(=O)(=O)c2ccc3nc(C)n(NS(=O)(=O)c4ccc(NC(C)=O)cc4)c(=O)c3c2)cc1	> 100 µM
C[C@]12CC[C@@H]3c4cc(OC(F)F)c(O)cc4CC[C@H]3[C@@H]1CC[C@@H]2OS(N)(=O)=O	> 100 µM

Moving on to the next compound.
TGI value, target or system A549 NSCLC, for Nc1ccc2nc3c(nc2c1)C(=O)c1ccccc1-3 : > 100 µM

---

tested on: NCI-H460 lung; assay: NCI tumour cell line growth inhibition, 48 h
# reported TGI; entries follow

N#CC(N)c1ccc(OCCCCCCCCCCOc2ccc(C(N)C#N)cc2)cc1 (stereo not given)	> 100 µM
Nc1ccccc1NC(=O)c1ccc(CNc2nccc(-c3cccnc3)n2)cc1	97 µM
COc1cccc(CCC2CCCN(c3cc(C)nc(N)n3)C2)c1 (stereo not given)	11.6 µM
COc1ccc2c(c1)[n+]([O-])c(-c1ccc([N+](=O)[O-])cc1)c(N)[n+]2[O-]	> 100 µM
c1ccc(N2N=C(c3cccc(Nc4ccncc4)c3)CC2c2ccc3c(c2)OCO3)cc1 (stereo not given)	3.18 µM

CCOC(=O)c1ccccc1OC(=O)NNc1ccccc1 has a reported TGI of > 100 µM

CCOC(=O)[C@@H](C)C[C@H](Cc1ccccc1)NC(=O)c1nc([C@@H](C[C@H](C(C)C)N(C)C(=O)[C@@H](NC(=O)[C@H]2CCCCN2C)C(C)C)OC(C)=O)sc1CCOCc1ccccc1 has a reported TGI of 1.4 µM

NC(=O)C(=O)c1ncn(Cc2ccccc2)c1N has a reported TGI of > 100 µM

COc1ccc(/C=C(/C(=O)N2CCN(c3ccccc3)CC2)c2cc(OC)c(OC)c(OC)c2)cc1N has a reported TGI of > 100 µM

CC(=O)OC1CC2CCN3C(=O)c4cc5c(cc4[C@H](C1OC(C)=O)C23)OCO5 (stereo not given in full) has a reported TGI of > 100 µM

N#Cc1c(NC(=O)NCc2ccccc2)sc2c1CCCC2 has a reported TGI of > 100 µM

C1=NCCN2CCN(CCN=Cc3ccccc3OCc3cccc(n3)COc3ccccc31)CC2 has a reported TGI of > 50 µM

---

test system: ACHN renal; test: NCI tumour cell line growth inhibition, 48 h
recorded-endpoint: TGI

Cc1sc2[nH]c(=O)oc(=O)c2c1C has a reported TGI of > 100 µM

O=C(/C=C/c1ccco1)c1cc(F)c(Cl)cc1Cl has a reported TGI of 45.1 µM

Nc1ccccc1Nc1ccccc1C(=O)[O-].Nc1ccccc1Nc1ccccc1C(=O)[O-].[Zn+2] has a reported TGI of > 100 µM

CCCC(=O)Nc1cc(/C=C/C(=O)N2CC(CCl)c3c2cc(OCc2ccccc2)c2[nH]cc(C)c32)n(C)c1 (stereo unspecified) has a reported TGI of 0.0833 µM

---

# reported TGI; entries follow
test system: OVCAR-4 ovarian; assay: NCI tumour cell line growth inhibition, 48 h

COC(=O)C(Cc1nc2ccccc2[nH]c1=O)/C(=N\NC(C)(C)C)C(=O)Nc1c(C)cc(Br)cc1C (stereo not given) has a reported TGI of > 100 µM

CC[C@@H]1[C@@H](C)O[C@@](O)([C@@H](C)[C@H](O)[C@H](C)[C@H]2OC(=O)/C=C/C=C/[C@H](C)[C@@H]([C@@H](C)[C@@H](O)[C@H](C)[C@@]3(O)C[C@@H](O[C@H]4C[C@@H](O)[C@H](O)C(C)O4)[C@H](CC)[C@@H](C)O3)OC(=O)/C=C/C=C/[C@@H]2C)C[C@H]1O[C@@H]1C[C@@H](O)[C@H](O)C(C)O1 (stereo not given in full) has a reported TGI of 0.192 µM

CCOc1ccc(N/C(=C(/C(Cl)=C(/Cl)Nc2ccccc2)[N+](=O)[O-])n2nnc3ccccc32)cc1 has a reported TGI of > 100 µM

Cc1cccc(-c2[nH]ncc2-c2ccc3ncccc3n2)n1 has a reported TGI of > 25 µM

COc1cc2c(cc1C[C@H]1[C@@H]3C[C@H]4c5c(c6ccccc6n5C)C[C@@H]([C@@H]3CO[C@]1(C)OC(C)=O)N4C)c1c(n2C)C2C[C@H]3C(C(C)=O)=COC[C@H]3[C@H](C1)N2C has a reported TGI of > 25 µM
